- Procedure Details: Pharmacokinetics of MIS and Ro 05-9963 in plasma/blood, brain and tumour by HPLC after 1 g/kg MIS i.p.
- Test Conditions: male, BALB/c, mouse, tumour and brain / plasma, ip, 1 g/kg
Observed Property: Kp

*Q* GET /values?readout=Kp&item= COCC(O)Cn1ccnc1[N+](=O)[O-] (stereo not shown)
*A* ~0.5

----------
- Procedure Details: in vivo
- Test Conditions: male, BALB/c, mouse, ip, LD50(7d) (95% confidence limits), MIS single i.p., pretreatment phenobarbitone
Observed Property: LD50 at 7 days (mg/kg)
Lab book: enter the figure in mg/kg, no units written.

*Q* Find the recorded LD50 at 7 days belonging to COCC(O)Cn1ccnc1[N+](=O)[O-] (stereo not shown) and report it.
*A* 1900
